Where these numbers come from: patent US20030129672A1

testedOn: MMP-13CD (Homo sapiens)
assayProtocol: Fluorigenic peptide-1 substrate based assay with and without acetohydroxamic acid, MMP-13CD
Type: biochemical
assayConditions: MMP-13CD, FP1 substrate, 15 mM acetohydroxamic acid (1 Kd); read-out: With AcNHOH IC50
Reported IC50 is given for each of the following compounds.
Hi! Could you send only the number? It should be in µM, unit omitted.

Prompt: What does the data say about its IC50? Entry: "Nc1ccc(-c2ccc(S(N)(=O)=O)cc2)cc1"
Completion: 16

Prompt: Which IC50 value is on record for "COc1ccc(NC(=O)Nc2ccc3nc(C)cc(N)c3c2)cc1" ?
Completion: 71

---

testedOn: MMP-2 (Homo sapiens)
Sequence (P08253 110-660, species assumed): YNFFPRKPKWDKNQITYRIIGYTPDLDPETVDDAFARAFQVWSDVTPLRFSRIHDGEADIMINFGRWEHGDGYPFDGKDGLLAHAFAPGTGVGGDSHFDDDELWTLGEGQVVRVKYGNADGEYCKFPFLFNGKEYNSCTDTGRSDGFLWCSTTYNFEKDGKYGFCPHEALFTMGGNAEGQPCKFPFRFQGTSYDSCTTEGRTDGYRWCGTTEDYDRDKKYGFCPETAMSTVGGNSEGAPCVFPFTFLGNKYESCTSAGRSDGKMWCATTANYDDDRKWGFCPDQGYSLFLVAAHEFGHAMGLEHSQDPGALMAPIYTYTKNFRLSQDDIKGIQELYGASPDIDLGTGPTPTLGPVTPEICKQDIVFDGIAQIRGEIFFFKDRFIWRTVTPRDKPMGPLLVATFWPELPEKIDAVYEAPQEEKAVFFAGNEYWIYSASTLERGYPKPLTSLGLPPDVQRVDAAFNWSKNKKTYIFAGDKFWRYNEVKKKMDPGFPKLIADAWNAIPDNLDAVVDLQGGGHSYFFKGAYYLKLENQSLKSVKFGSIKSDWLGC
assayProtocol: Fluorigenic peptide-1 substrate based assay with and without acetohydroxamic acid, MMP-2
Type: biochemical
assayConditions: MMP 2FL, FP1 substrate, about 1 Kd of acetohydroxamic acid; read-out: With AcNHOH IC50
measureName: IC50 (nM)
API: value field is a number in nM; no unit string.

Prompt: So what IC50 did "O=C(NC(=S)NCc1cc(-c2ccccc2)no1)c1ccccc1" get with MMP-2 (Homo sapiens)?
Completion: 90
